Task for the reader: assign each of the following molecules its reported growth inhibition.
Experiment: NCI Yeast Anticancer Drug Screen. Data for the cln2 rad14 strain (AID 165);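 further: 0% = growth equal to vehicle treated cultures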
Details: S. cerevisiae cln2 rad14 strain, at 50.0 µM, active compounds read high
The panel holds about 79,000 compounds, 15% with a hit somewhere; the sample as a whole holds those more often.
Give bare numbers, in %.

> print(dat)
                                   molecule  quantity.measured  unit.info  meas.value
1  COC(=O)C(C(=O)C(=O)NC1Nc2ccc(C)cc2S1)c1nc2ccc(Cl)cc2[nH]c1=O (stereo unspecified)  growth inhibition          %        21.1

List reported growth inhibition for each of these molecules:
1. CC1(C)S[C@H](CN)N[C@H]1C(=O)OC(c1ccccc1)c1ccccc1
2. O=C=NC(c1ccccc1)(c1ccccc1)c1ccccc1
3. CCC(C)C1(O)OC2CC3(C)OC(=CC3=O)/C(C)=C\C3OC(=O)C1(C)C32 (stereo unspecified)
4. N#CC(=S)Nc1ccc(F)cc1
5. N#Cc1n[nH]n(-c2ccccc2)c1=O
6. C[C@@H]1CC[C@H]2C(C)(C)[C@H]3C[C@@]12CC[C@@]3(C)O
7. COc1cc2c(cc1C1COc3cc4occc4cc3C1=O)OCO2 (stereo unspecified)
8. Cc1ccc(/C=N/Nc2ccccn2)s1

Reply |
[-1, 11.5, 6.4, -17.8, -11.7, 14.1, 6.8, 11.4]

List reported growth inhibition for each of these molecules:
1. C=C1C(=O)O[C@H]2C[C@@]3(C)[C@H](O)CCC(=C)[C@@H]3[C@@H](OC(C)=O)[C@H]12
2. CC1(C)C2CCC1(CS(=O)(=O)O)C(=O)C2 (stereo unspecified)

Reply |
-6.7
-58.4

----------
Experiment: NCI Yeast Anticancer Drug Screen. Data for the mlh1 rad18 strain (AID 175)
Details: S. cerevisiae mlh1 rad18 strain growth inhibition; at 50.0 µM; active compounds read high
The panel holds about 79,000 compounds, 15% with a hit somewhere; the sample as a whole holds those more often.
Decision: growth inhibition compared against -10%; not below it gives yes, below it gives no.

> print(dat)
                                   molecule  assigned.label
1  CC(CN1CCCC1)C(O)(Cc1ccccc1)c1ccccc1 (stereo unspecified)             yes
2         Nc1ccc2[nH]c(-c3ccccc3)cc(=O)c2c1              no
3  O=[N+]([O-])c1cc([N+](=O)[O-])c2nc3ccccn3c2c1              no

Ask | Record "O=[N+]([O-])c1ccc2nc3c4ccccc4c4ccccc4c3nc2c1" ; criterion: growth inhibition no lower than -10%. Met?
Reply | yes

Ask | Try "Cc1ccc(N2CCOC2=O)cc1N1CCOC1=O" next.
Reply | no

Ask | Try CC(C)C1OC(N)=C(C#N)C1(C#N)C#N (stereo unspecified) next.
Reply | no

Ask | Try "O=C(CCCCCCCCCCBr)OCc1ccccc1" next.
Reply | yes

Ask | Try "Cc1ccc2c(/C=C/c3ccc(N(C)C)cc3)ccc(C(C)C)cc1-2" next.
Reply | no

Ask | Try C=CC(COC(=O)C(C)(C)OC(C)=O)c1ccc(OC(=O)C(C)C)c(OC)c1 (stereo unspecified) next.
Reply | no

Ask | Try COC(=O)C(/C(=N/NC(N)=O)C(=O)Nc1ccc(C)cc1)c1nc2ccc([N+](=O)[O-])cc2[nH]c1=O (stereo unspecified) next.
Reply | yes

----------
Assay: NCI Yeast Anticancer Drug Screen. Data for the cln2 rad14 strain (AID 165);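 further: 0% = growth equal to vehicle treated cultures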
Details: S. cerevisiae cln2 rad14 strain, at 50.0 µM, active compounds read high
Compounds without any hit were thinned out: in the full panel of roughly 79,000, 15% have a hit.
Task for the reader: assign each of the following compounds its reported growth inhibition.
Give bare numbers, in %.

Would you please look over these solved cases?
> print(dat)
                                   compound  unit.info  meas.value
1  Cc1ccc(C)c(NC(=O)/C(=N\N)C(c2cnc3ccc([N+](=O)[O-])cc3n2)[N+](=O)[O-])c1 (centres undefined)          %       -35.2
2  CC(=O)c1ccc(NC(=O)/C(CC(=O)/C=C/c2ccccc2)=N/NC(N)=S)cc1          %        16.3
3  COc1ccc2c(=O)c(-c3cc4c(cc3OC)OCO4)coc2c1          %        -3.1
4  COC(=O)C1=CO[C@@H](OC2OC(CO)C(O)C(O)C2O)[C@H]2[C@@H](C)[C@@H](O)[C@@H](O)[C@@H]12 (some centres undefined)          %         2.4
5          CO/C(N)=C(\C#N)N=Cc1ccc2ccccc2c1          %        19.1
6  COc1ccc2nc(NC(=O)/C(C#N)=C/c3ccccc3)sc2c1          %        -3.3
7  Cc1ccc(OCC2OC(n3cnc4c(Cl)nc(Cl)nc43)CC2Oc2ccc(C)cc2)cc1 (centres undefined)          %        7.45
8   CC(C)/C(Cl)=N/OC(=O)Nc1cccc(C(F)(F)F)c1          %        24.8

# input for lookup
Ask | Can you share its growth inhibition? I mean this compound: "CCCCCCSC[C@H](OC(C)=O)[C@@H](OC(C)=O)[C@@H](OC(C)=O)[C@@H](COC(C)=O)OC(C)=O"
Reply | -2.95

----------
Assay: NCI Yeast Anticancer Drug Screen. Data for the sgs1 mgt1 strain (AID 161);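 further: 0% = growth of cultures given vehicle only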
Conditions: S. cerevisiae sgs1 mgt1 strain, at 50.0 µM, active compounds read high
About 79,000 compounds went through this panel and 15% of them were active in at least one assay; those are over-represented in the sample as a whole.
quantity-measured: growth inhibition (%)
One number for each entry, in %.

> print(dat)
                                   molecule  quantity.measured  meas.value
1     COc1ccc2cc(CN3CCC(C4CCNCC4)CC3)ccc2c1  growth inhibition        1.55
2  COC(=O)C(/C(=N/NC(N)=O)C(=O)Nc1ccc(C)cc1)c1nc2ccc([N+](=O)[O-])cc2[nH]c1=O (stereo unspecified)  growth inhibition        0.45
3  O=C1c2c(O)cc(O)cc2OC(c2ccc(O)c(O)c2)C1O (stereo unspecified)  growth inhibition        11.2
4  COc1cc2c(c3c1c(=O)c1ccccc1n3C)C=C([N+](=O)[O-])C(C)(C)O2  growth inhibition        16.6
5  O=C(O)c1cn(C2CC2)c2cc(N3CCNCC3)c(F)cc2c1=O  growth inhibition       -13.1
6  CC(=O)[C-](C(C)=O)c1ccccc1.CC(=O)[C-](C(C)=O)c1ccccc1.CC(=O)[C-](C(C)=O)c1ccccc1.[Cl-].[Zr+4]  growth inhibition        0.35
7  COc1cc(-c2nc(SC)nc3c2CCc2ccccc2-3)cc(OC)c1OC  growth inhibition        2.95
8        O=C=NC(c1ccccc1)(c1ccccc1)c1ccccc1  growth inhibition        1.65

List reported growth inhibition for each of these molecules:
1. CCOc1cc2c(cc1O)C=C[C@@H]1[C@@H]2CC[C@]2(C)[C@@H](O)CC[C@@H]12
2. CCCCCCCCCC(=O)CC(=O)c1c(O)cc(O)cc1O
3. CC(=O)C(C(C)=O)c1ccccc1
4. CC1OC23CCCCC2C(C#N)(C#N)C1(C#N)C(=N)O3 (stereo unspecified)
5. COc1ccc(-c2coc3c4c(ccc3c2=O)OCO4)cc1OC
6. OCC(CO)(CO)COCC(CO)(CO)COCC(CO)(CO)CO
7. C=CCNC1=C2C[C@@H](C)C[C@@H](OC)[C@@H](OC(=O)CCCN)[C@H](C)/C=C(\C)[C@@H](OC(N)=O)[C@H](OC)/C=C\C=C(/C)C(=O)NC(=CC1=O)C2=O
8. COC(=O)C(C(=O)C(=O)NC1Nc2ccc(C)cc2S1)c1nc2ccc(Cl)cc2[nH]c1=O (stereo unspecified)

Reply |
53.8
12.2
3.05
-36
0.45
-20.9
14.2
11.5

----------
Experiment: NCI Yeast Anticancer Drug Screen. Data for the rad50 strain (AID 155);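 further: 0% = growth of vehicle-only cultures of the same strain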
Conditions: S. cerevisiae rad50 strain growth inhibition; at 50.0 µM; active compounds read high
Compounds without any hit were thinned out: in the full panel of roughly 79,000, 15% have a hit.
Decision: growth inhibition compared against 10%; not below it gives Satisfied, below it gives Not satisfied.

Study these solved cases before continuing.
> print(dat)
                                   compound  assigned.label
1    C(=C/c1ccc(/C=C/c2ccccc2)cc1)/c1ccccc1   Not satisfied
2  C=CC1=C(C)C2=NC1=CC1=NC(=C(CC)/C1=C\O)C=C1N=C3C(=C1C)C(=O)[C@H](C(=O)OC)C3=C1NC(=C2)[C@@H](C)[C@@H]1CCC(=O)O   Not satisfied

Ask | Record O=C1c2c(O)cc(O)cc2OC(c2ccc(O)c(O)c2)C1O (stereo not given) ; criterion: growth inhibition no lower than 10%. Met?
Reply | Not satisfied

Ask | Try "CCOc1cc2c(cc1O)/C(=N/NS(=O)(=O)c1ccc(C)cc1)C[C@@H]1[C@@H]2CC[C@]2(C)[C@@H](O)CC[C@@H]12" next.
Reply | Satisfied

Ask | Try Cc1ccc(OCC2OC(n3cnc4nc(Cl)nc(Cl)c43)CC2Oc2ccc(C)cc2)cc1 (stereo not given) next.
Reply | Satisfied

Each recorded value in this set is attributed to PubChem BioAssay (NCI).
